Source listed as the kinase profiling compilation of Christmann-Franck et al. (2016).

- testedSystem: RPS6KB1 (human)
- experimentSummary: radiometric filter-binding kinase assay, Kinase HotSpot
- conditions: compound 0.5 µM; ATP 10 µM
readoutLabel: residual activity (%)
Lab book: enter the figure in %, no units written.

molecule	residual activity, %
Oc1cccc(-c2nc(N3CCOCC3)c3oc4ncccc4c3n2)c1	106

## Task # get_value(readout='residual activity', item= "CC[n+]1c(/C=C/N(C)c2ccccc2)n(-c2ccccc2)c2ccc(-c3nc4ccccc4s3)cc21" )
## Result 96.8

## Task Reported residual activity for "Nc1ncnc2c1c(-c1ccc(Oc3ccccc3)cc1)cn2C1CCCC1" : what is it?
## Result 104

## Task So what does the record say about residual activity for "Cc1ccc(NC2=CC(=O)c3sc(C)nc3C2=O)cc1" ?
## Result 97.2

## Task Report residual activity for "CCN(CC)CCNC(=O)c1c(C)[nH]c(/C=C2\C(=O)Nc3ccc(F)cc32)c1C" please.
## Result 42.3

## Task Can you share its residual activity? I mean this compound: "O=S(=O)(c1cccc2cnccc12)N1CCCNCC1"
## Result 76.6

## Task For "CCCC(=O)Oc1ccc2[nH]c(C(=O)c3cc4ccccc4[nH]3)cc2c1" , what is its reported residual activity?
## Result 94.5

## Task Returns the measured residual activity for the input compound. Input: "COc1ccc(COc2ccc(Cc3cnc(N)nc3N)cc2OC)cc1"
## Result 89.5

----------
Entries annotated with measured residual activity
- testedSystem: PNCK (human) (UniProt Q6P2M8)
- Sequence (Q6P2M8 whole entry, looked up): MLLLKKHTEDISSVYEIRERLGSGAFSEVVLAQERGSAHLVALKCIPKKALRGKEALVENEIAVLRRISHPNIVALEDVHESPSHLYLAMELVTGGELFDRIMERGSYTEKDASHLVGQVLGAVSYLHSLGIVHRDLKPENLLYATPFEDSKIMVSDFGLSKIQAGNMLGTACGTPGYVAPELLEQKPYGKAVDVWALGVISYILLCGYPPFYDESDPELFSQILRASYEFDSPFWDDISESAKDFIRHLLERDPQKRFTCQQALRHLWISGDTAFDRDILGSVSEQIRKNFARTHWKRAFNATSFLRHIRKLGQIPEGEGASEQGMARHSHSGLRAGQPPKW
- experimentSummary: radiometric filter-binding kinase assay, Kinase HotSpot
- conditions: compound 0.5 µM; ATP 10 µM
Value expressed in %; do not type the unit.

Completed entries (count: 8):
molecule	residual activity (%)
CO[C@H]1CC2CC[C@@H](C)[C@@](O)(O2)C(=O)C(=O)N2CCCC[C@H]2C(=O)OC([C@H](C)C[C@@H]2CC[C@@H](O)[C@H](OC)C2)CC(=O)[C@H](C)/C=C(\C)[C@@H](O)[C@@H](OC)C(=O)[C@H](C)C[C@H](C)/C=C/C=C/C=C/1C (some centres undefined)	95.4
CC(=O)c1ccc(N2CCOCC2)cc1O	103
O=C(Nc1cccc(Nc2nccc(Nc3cccc(C(F)(F)F)c3)n2)c1)C1CC1	106
Nc1ncnc2[nH]nc(Nc3ccc(F)cc3)c12	98.4
c1ccc(-c2n[nH]c3c2oc2ccccc23)cc1	98.6
CCN(CC)C(=O)c1ccc(Nc2nc(OCC3CCCCC3)c3nc[nH]c3n2)cc1	117
COc1ccc(COc2ccc(Cc3cnc(N)nc3N)cc2OC)cc1	98.4
Cc1ccc(NC2=CC(=O)c3sc(C)nc3C2=O)cc1	95.3

Query molecule follows.
## Task residual activity lookup needed for "CNC(=O)c1cc(Oc2ccc(NC(=O)Nc3ccc(Cl)c(C(F)(F)F)c3)cc2)ccn1" , thanks.
## Result 94.7

----------
- testedSystem: ALK (human)
- experimentSummary: radiometric filter-binding kinase assay, Kinase HotSpot
- conditions: compound 0.5 µM; ATP 10 µM
readoutLabel: residual activity
Phrase the answer as number then unit, nothing more needed.

Consider the following illustrative entries.
compound	valueMeasured
CCC(=O)Nc1ccc2ncnc(Nc3cccc(Br)c3)c2c1	83.1%
Nc1ccc2ncnc(NCCc3ccc(Oc4ccccc4)cc3)c2c1	108%
Nc1cccc(-c2cc3c(Oc4cccc(O)c4)ncnc3[nH]2)c1	80.9%
N#CC(C#N)=C(N)/C(C#N)=C/c1ccc(O)cc1	109%

// below: residual activity requested for another compound
## Task Any idea what its residual activity is? The compound is "Nc1ncnc2c1c(-c1ccc(Oc3ccccc3)cc1)cn2C1CCCC1"
## Result 80.6%

----------
The entries below come with measured residual activity values attached.
- testedSystem: MAPK13 (human) (UniProt O15264)
- Sequence (O15264 whole entry, looked up): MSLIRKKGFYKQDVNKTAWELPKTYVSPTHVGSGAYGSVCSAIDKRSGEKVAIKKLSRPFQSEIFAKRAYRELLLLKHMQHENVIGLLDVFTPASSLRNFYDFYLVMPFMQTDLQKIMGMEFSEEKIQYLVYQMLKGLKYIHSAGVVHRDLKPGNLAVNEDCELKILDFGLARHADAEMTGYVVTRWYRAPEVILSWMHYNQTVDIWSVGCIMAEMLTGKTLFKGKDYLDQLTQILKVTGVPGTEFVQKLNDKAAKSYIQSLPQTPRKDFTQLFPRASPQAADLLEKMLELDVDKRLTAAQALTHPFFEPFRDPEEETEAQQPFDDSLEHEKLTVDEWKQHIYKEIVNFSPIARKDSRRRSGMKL
- experimentSummary: radiometric filter-binding kinase assay, Kinase HotSpot
- conditions: compound 0.5 µM; ATP 10 µM
Use % as the unit, but write only the number.

Some molecules with recorded residual activity:
molecule	readoutLabel	valueMeasured
c1ccc(-c2n[nH]cc2-c2ccnc3ccccc23)nc1	residual activity	110
Cc1[nH]c(/C=C2\C(=O)Nc3ccc(S(=O)(=O)N(C)c4cccc(Cl)c4)cc32)c(C)c1C(=O)N1CCN(C)CC1	residual activity	100
O=C1NC(=O)/C(=C/c2ccc3c(c2)OC(F)(F)O3)S1	residual activity	101
CCC(=O)Nc1ccc2ncnc(Nc3cccc(Br)c3)c2c1	residual activity	106
CCN(CC)C(=O)c1ccc(Nc2nc(OCC3CCCCC3)c3nc[nH]c3n2)cc1	residual activity	95.3
Nc1ccc2ncnc(NCCc3ccc(Oc4ccccc4)cc3)c2c1	residual activity	100

## Task Would you mind telling me what residual activity value was observed for "O=S(=O)(c1cccc2cnccc12)N1CCCNCC1" ?
## Result 98.8

## Task Recorded residual activity of "Nc1ncnc2[nH]nc(Nc3ccc(F)cc3)c12" , please.
## Result 104

----------
- testedSystem: IRAK4 (human) (UniProt Q9NWZ3)
- Sequence (Q9NWZ3 whole entry, looked up): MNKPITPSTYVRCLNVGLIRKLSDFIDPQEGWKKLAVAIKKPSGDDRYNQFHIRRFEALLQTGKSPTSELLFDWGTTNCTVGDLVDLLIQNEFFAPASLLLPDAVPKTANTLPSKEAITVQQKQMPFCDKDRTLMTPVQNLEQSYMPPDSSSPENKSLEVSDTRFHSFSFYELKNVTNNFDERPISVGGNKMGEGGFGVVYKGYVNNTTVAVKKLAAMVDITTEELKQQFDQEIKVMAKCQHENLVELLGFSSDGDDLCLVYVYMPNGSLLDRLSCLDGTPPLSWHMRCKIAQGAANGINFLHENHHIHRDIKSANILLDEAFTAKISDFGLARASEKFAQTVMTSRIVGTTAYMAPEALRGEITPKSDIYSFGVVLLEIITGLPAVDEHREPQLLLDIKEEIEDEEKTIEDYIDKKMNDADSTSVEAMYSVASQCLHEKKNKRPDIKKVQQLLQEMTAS
- experimentSummary: radiometric filter-binding kinase assay, Kinase HotSpot
- conditions: compound 0.5 µM; ATP 10 µM
readoutLabel: residual activity (%)
Field format: number, assumed %, no unit text.

Solved entries (count: 10):
compound	units	residual activity
O=C1NC(=O)C(c2cn(CCCn3ccnc3)c3ccccc23)=C1Nc1ccccc1	%	89.5
COc1ccc(COc2ccc(Cc3cnc(N)nc3N)cc2OC)cc1	%	110
c1ccc(-c2n[nH]cc2-c2ccnc3ccccc23)nc1	%	87.7
Nc1ccc2ncnc(NCCc3ccc(Oc4ccccc4)cc3)c2c1	%	92.4
Cc1ccc(S(=O)(=O)/C=C/C#N)cc1	%	161
c1ccc(-c2n[nH]c3c2oc2ccccc23)cc1	%	92.7
Cc1ccc(Nc2nccc(N(C)c3ccc4c(C)n(C)nc4c3)n2)cc1S(N)(=O)=O	%	98.4
CCN(CC)CCNC(=O)c1c(C)[nH]c(/C=C2\C(=O)Nc3ccc(F)cc32)c1C	%	27.4
O=C1NC(=O)/C(=C/c2ccc3c(c2)OC(F)(F)O3)S1	%	99.2
CCC(=O)Nc1ccc2ncnc(Nc3cccc(Br)c3)c2c1	%	79.8

## Task Fill in: residual activity of "COc1ccc2c(c[n+](C)c3c4cc5c(cc4ccc23)OCO5)c1OC" is ___
## Result 116

## Task Which value of residual activity has been reported for "CCCC(=O)Oc1ccc2[nH]c(C(=O)c3cc4ccccc4[nH]3)cc2c1" in the records?
## Result 82.7

## Task Quick check: residual activity of "Nc1ncnc2c1c(-c1ccc(Oc3ccccc3)cc1)cn2C1CCCC1" ?
## Result 98.5

## Task What measured residual activity goes with "CC[n+]1c(/C=C/N(C)c2ccccc2)n(-c2ccccc2)c2ccc(-c3nc4ccccc4s3)cc21" ?
## Result 173

## Task Reported residual activity for "Cc1ccc(NC2=CC(=O)c3sc(C)nc3C2=O)cc1" : what is it?
## Result 124

## Task // lookup residual activity for "CC#CC(=O)Nc1cc2c(Nc3ccc(F)c(Cl)c3)ncnc2cn1"
## Result 102

## Task What does the data say about its residual activity? Entry: CO[C@H]1CC2CC[C@@H](C)[C@@](O)(O2)C(=O)C(=O)N2CCCC[C@H]2C(=O)OC([C@H](C)C[C@@H]2CC[C@@H](O)[C@H](OC)C2)CC(=O)[C@H](C)/C=C(\C)[C@@H](O)[C@@H](OC)C(=O)[C@H](C)C[C@H](C)/C=C/C=C/C=C/1C (stereo partly specified)
## Result 123

## Task Name the recorded residual activity for "CCOC(=O)c1c(C)[nH]c(/C=C2\C(=O)Nc3ccccc32)c1C" .
## Result 96.8

## Task What does the record list as residual activity for "O=S(=O)(c1cccc2cnccc12)N1CCCNCC1" ?
## Result 108

## Task Which residual activity value belongs to "O=c1cc(N2CCOCC2)oc2c1ccc1ccccc12" ?
## Result 122

## Task Dear colleague, I am looking for the recorded residual activity of the following compound: "Nc1ncnc2[nH]nc(Nc3ccc(F)cc3)c12"
## Result 88.3

## Task // lookup residual activity for "CNc1cc2c(Nc3cccc(Br)c3)ncnc2cn1"
## Result 82.6

----------
The compounds listed here are annotated with their residual activity.
- testedSystem: CLK1 (human) (UniProt P49759)
- Sequence (P49759 whole entry, looked up): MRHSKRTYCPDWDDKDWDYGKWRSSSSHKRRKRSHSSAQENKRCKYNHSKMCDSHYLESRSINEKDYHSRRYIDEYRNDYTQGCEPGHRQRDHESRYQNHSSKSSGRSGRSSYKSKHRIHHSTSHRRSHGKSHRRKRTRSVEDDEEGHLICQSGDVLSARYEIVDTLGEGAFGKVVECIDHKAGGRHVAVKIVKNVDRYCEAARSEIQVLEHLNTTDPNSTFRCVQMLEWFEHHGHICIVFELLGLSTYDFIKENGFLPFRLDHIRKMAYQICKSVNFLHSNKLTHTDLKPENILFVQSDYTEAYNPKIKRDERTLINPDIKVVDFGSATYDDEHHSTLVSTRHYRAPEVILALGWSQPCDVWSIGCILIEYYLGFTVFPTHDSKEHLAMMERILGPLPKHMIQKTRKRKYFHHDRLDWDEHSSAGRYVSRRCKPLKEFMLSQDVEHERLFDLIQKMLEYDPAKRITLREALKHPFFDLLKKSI
- experimentSummary: radiometric filter-binding kinase assay, Kinase HotSpot
- conditions: compound 0.5 µM; ATP 10 µM
Please respond with the number in % and leave the unit unwritten.

Past entries and their recorded results:
compound	residual activity, %
CC#CC(=O)Nc1cc2c(Nc3ccc(F)c(Cl)c3)ncnc2cn1	82.5
Cc1ccc(NC2=CC(=O)c3sc(C)nc3C2=O)cc1	100
CO[C@H]1CC2CC[C@@H](C)[C@@](O)(O2)C(=O)C(=O)N2CCCC[C@H]2C(=O)OC([C@H](C)C[C@@H]2CC[C@@H](O)[C@H](OC)C2)CC(=O)[C@H](C)/C=C(\C)[C@@H](O)[C@@H](OC)C(=O)[C@H](C)C[C@H](C)/C=C/C=C/C=C/1C (stereo partly specified)	107
CNC(=O)c1cc(Oc2ccc(NC(=O)Nc3ccc(Cl)c(C(F)(F)F)c3)cc2)ccn1	97.7
CCN(CC)CCNC(=O)c1c(C)[nH]c(/C=C2\C(=O)Nc3ccc(F)cc32)c1C	23.3

## Task Request - read-out residual activity | tested on CLK1 (human) (UniProt P49759) | compound "N#CC(C#N)=C(N)/C(C#N)=C/c1ccc(O)cc1"
## Result 96.5

## Task Please tell me: residual activity of "Nc1ncnc2[nH]nc(Nc3ccc(F)cc3)c12" , system CLK1 (human) (UniProt P49759)?
## Result 102

## Task Kindly state the measured residual activity obtained for "CC(=O)c1ccc(N2CCOCC2)cc1O" with CLK1 (human) (UniProt P49759).
## Result 110

## Task Under CLK1 (human) (UniProt P49759): residual activity value of "O=S(=O)(c1cccc2cnccc12)N1CCCNCC1" ?
## Result 96.3

## Task # returns recorded residual activity (system: CLK1 (human) (UniProt P49759)) for "CCC(=O)Nc1ccc2ncnc(Nc3cccc(Br)c3)c2c1"
## Result 84.5

## Task Give CLK1 (human) (UniProt P49759) residual activity for "CC(C)N(CCC(=O)c1ccc2ccccc2c1)Cc1ccccc1"
## Result 109

## Task API: value(readout=residual activity, system=CLK1 (human) (UniProt P49759)) for record "COc1ccc(COc2ccc(Cc3cnc(N)nc3N)cc2OC)cc1"
## Result 103

## Task What is its residual activity for CLK1 (human) (UniProt P49759)? Entry: "COc1ccc2c(c[n+](C)c3c4cc5c(cc4ccc23)OCO5)c1OC"
## Result 101

## Task Provide value of residual activity for this record tested with CLK1 (human) (UniProt P49759): "O=C1Nc2ccc(Cl)cc2/C1=C/c1cc(Cl)c(O)c(Cl)c1"
## Result 85

## Task Which measured residual activity belongs to "CCN(CC)CCNC(=O)c1c(C)[nH]c(/C=C2\C(=O)Nc3ccc(Cl)cc32)c1C" , tested on CLK1 (human) (UniProt P49759)?
## Result 34.2

## Task Under CLK1 (human) (UniProt P49759): residual activity value of "O=C1NC(=O)c2c1c1c3ccccc3n3c1c1c2c2ccccc2n1C1CCC3O1" ?
## Result 43.1

## Task Form field - read-out: residual activity; system: CLK1 (human) (UniProt P49759); submitted item: "COc1cc2ncnc(Nc3cccc(Cl)c3)c2cc1OC"
## Result 103

## Task API: value(readout= residual activity, system= CLK1 (human) (UniProt P49759), query= "Nc1ncnc2c1c(-c1ccc(Oc3ccccc3)cc1)cn2C1CCCC1" )
## Result 103

## Task Lab request: please report residual activity under test system CLK1 (human) (UniProt P49759) for "Nc1ccc2ncnc(NCCc3ccc(Oc4ccccc4)cc3)c2c1"
## Result 101

## Task State its residual activity on CLK1 (human) (UniProt P49759): "Cc1ccc(Nc2nccc(N(C)c3ccc4c(C)n(C)nc4c3)n2)cc1S(N)(=O)=O"
## Result 103

## Task Give the reported residual activity for "O=c1cc(N2CCOCC2)oc2c1ccc1ccccc12" (system: CLK1 (human) (UniProt P49759)).
## Result 98.3
